Attribute: Vmax
# Substrate: CCCC(=O)Oc1ccc([N+](=O)[O-])cc1
# protocol_notes: purified protein
# Assay type: biochemical, Lactobacillus johnsonii
# assay_context: HEPES pH 7.80, 25 °C (typical assay; saturation conditions as in ref 14), pH 7.8

{"protein": "LJ0536 (cinnamoyl esterase) (Lactobacillus johnsonii; H32A) (protein, full length in p15TV-L, E. coli BL21(DE3); His6-tag removed by TEV for kinetics; crystals: tag uncleaved, protease-treated (subtilisin or V8), residues 1-245 modelled, four C-terminal residues lost) MATITLERDGLQLVGTREEPFGEIYDMAIIFAGFTANRNTSLLREIANSLRDENIASVRFDFNGHGDSDGKFENMTVLNEIEDANAILNYVKTDPHVRNIYLVGHSQGGVVASMLAGLYPDLIKKVVLLAPAATLKGDALEGNTQGVTYNPDHIPDRLPFKDLTLGGFYLRIAQQLPIYEVSAQFTKPVCLIHGTDDTVVSPNASKKYDQIYQNSTLHLIEGADHCFSDSYQKNAVNLTTDFLQNNNAF", "Vmax": "0.09 µmol/min/mg"}
{"protein": "LJ0536, cinnamoyl esterase of Lactobacillus johnsonii N6.2 (wild type) (enzyme, UniProt D3YEX6 1-249, looked up, LJ0536, serine cinnamoyl esterase, Lactobacillus johnsonii N6.2; the crystallised fragment 1-245 is said to lack four C-terminal residues of the full-length protein; The protein as used for gel filtration; also called WT) MATITLERDGLQLVGTREEPFGEIYDMAIIFHGFTANRNTSLLREIANSLRDENIASVRFDFNGHGDSDGKFENMTVLNEIEDANAILNYVKTDPHVRNIYLVGHSQGGVVASMLAGLYPDLIKKVVLLAPAATLKGDALEGNTQGVTYNPDHIPDRLPFKDLTLGGFYLRIAQQLPIYEVSAQFTKPVCLIHGTDDTVVSPNASKKYDQIYQNSTLHLIEGADHCFSDSYQKNAVNLTTDFLQNNNAF", "Vmax": "3.34 µmol/min/mg"}
{"protein": "LJ0536 (cinnamoyl esterase) (Lactobacillus johnsonii; S68A) (protein, full length in p15TV-L, E. coli BL21(DE3); His6-tag removed by TEV for kinetics; crystals: tag uncleaved, protease-treated (subtilisin or V8), residues 1-245 modelled, four C-terminal residues lost) MATITLERDGLQLVGTREEPFGEIYDMAIIFHGFTANRNTSLLREIANSLRDENIASVRFDFNGHGDADGKFENMTVLNEIEDANAILNYVKTDPHVRNIYLVGHSQGGVVASMLAGLYPDLIKKVVLLAPAATLKGDALEGNTQGVTYNPDHIPDRLPFKDLTLGGFYLRIAQQLPIYEVSAQFTKPVCLIHGTDDTVVSPNASKKYDQIYQNSTLHLIEGADHCFSDSYQKNAVNLTTDFLQNNNAF", "Vmax": "0.47 µmol/min/mg"}
